molecular target: human TLR8 (Homo sapiens); assay: HEK-293 assay format, human TLR8 (CL097); details: read-out: HEK/hTLR8 IC50
Sequence (Q9NR97 27-1041): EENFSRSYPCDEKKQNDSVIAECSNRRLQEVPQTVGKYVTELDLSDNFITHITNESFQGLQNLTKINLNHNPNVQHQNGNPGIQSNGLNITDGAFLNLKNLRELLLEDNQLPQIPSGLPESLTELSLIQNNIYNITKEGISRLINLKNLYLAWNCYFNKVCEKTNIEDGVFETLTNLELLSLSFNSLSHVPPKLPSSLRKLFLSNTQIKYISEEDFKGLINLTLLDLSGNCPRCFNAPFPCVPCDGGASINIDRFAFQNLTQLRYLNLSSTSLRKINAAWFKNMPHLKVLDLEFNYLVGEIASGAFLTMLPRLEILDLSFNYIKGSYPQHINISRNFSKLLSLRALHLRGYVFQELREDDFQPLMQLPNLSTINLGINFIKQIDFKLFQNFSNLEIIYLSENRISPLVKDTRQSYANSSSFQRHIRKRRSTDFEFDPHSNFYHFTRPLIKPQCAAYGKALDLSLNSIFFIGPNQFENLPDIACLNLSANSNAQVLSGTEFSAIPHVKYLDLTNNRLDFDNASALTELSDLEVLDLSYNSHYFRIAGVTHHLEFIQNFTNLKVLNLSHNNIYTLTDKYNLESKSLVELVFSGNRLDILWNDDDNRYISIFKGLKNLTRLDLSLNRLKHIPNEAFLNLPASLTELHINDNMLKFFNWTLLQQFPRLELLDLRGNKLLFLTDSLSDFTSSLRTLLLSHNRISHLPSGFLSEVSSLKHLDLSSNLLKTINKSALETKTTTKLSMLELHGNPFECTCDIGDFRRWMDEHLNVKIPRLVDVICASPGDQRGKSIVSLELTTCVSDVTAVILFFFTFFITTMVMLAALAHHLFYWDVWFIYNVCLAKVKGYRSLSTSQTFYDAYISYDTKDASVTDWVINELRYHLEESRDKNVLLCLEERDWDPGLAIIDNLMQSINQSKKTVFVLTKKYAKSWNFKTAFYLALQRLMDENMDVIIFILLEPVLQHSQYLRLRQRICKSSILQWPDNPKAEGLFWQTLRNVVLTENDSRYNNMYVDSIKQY
test.readout: pIC50
Please treat pIC50 as minus the base-10 logarithm of the molar concentration.

stdin: Please give the measured pIC50 for this compound: `N#Cc1ccc(N2CCC[C@@H](N)C2)c2cccnc12`
stdout: 7.13

* * *

biological target: mouse TLR7 (Mus musculus, UniProt P58681); construct: tissue Jackson Labs; host or cells: live female BALB/c mice; assay: Short-term in vivo (STIV) assay, plasma IL-6 after R848; details: 13 hr after oral dose, 100 mg/kg; plasma IL-6 after R848 s.c.; BALB/c mice
Sequence (P58681 27-1050): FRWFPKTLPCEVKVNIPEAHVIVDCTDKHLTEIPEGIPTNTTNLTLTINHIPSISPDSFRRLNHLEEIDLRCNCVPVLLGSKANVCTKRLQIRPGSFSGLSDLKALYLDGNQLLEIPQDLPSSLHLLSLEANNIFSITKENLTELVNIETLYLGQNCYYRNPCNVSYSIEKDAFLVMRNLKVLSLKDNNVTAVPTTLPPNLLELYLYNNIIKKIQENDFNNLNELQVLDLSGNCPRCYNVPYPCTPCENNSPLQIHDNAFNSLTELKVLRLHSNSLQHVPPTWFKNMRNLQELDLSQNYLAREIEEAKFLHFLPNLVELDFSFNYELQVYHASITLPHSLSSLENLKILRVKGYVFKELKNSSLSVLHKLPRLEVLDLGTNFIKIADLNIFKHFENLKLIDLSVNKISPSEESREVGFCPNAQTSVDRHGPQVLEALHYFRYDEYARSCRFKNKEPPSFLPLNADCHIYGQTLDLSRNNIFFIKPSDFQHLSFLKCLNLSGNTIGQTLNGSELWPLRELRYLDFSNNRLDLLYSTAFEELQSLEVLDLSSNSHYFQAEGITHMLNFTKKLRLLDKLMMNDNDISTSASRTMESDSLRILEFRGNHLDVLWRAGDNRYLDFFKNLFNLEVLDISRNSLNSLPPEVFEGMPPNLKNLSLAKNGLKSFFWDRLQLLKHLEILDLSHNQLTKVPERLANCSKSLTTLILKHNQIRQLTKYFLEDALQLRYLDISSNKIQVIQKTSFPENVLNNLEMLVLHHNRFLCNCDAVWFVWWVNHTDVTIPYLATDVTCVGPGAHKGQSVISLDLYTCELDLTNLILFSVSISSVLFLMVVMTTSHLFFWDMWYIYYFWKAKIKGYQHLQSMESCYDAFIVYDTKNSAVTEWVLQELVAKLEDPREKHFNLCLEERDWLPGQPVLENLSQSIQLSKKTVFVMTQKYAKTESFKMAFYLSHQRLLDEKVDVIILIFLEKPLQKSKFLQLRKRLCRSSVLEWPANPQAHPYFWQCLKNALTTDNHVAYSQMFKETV
test.readout: % Suppression vs. Vehicle (%)
Express your answer in %, writing the number without its unit.

INSERT INTO measurements (molecule, measured_number) VALUES
  ('CNCC(=O)NC1CC(C)CN(c2ccc(C#N)c3ncccc23)C1 (stereo not drawn) [ER-897608]', 84),
  ('CC1CC(NC2CCOC2)CN(c2ccc(C#N)c3ncccc23)C1 (stereo not drawn) [ER-899544]', 94),
  ('C[C@H]1C[C@@H](N)CN(c2ccc(C#N)c3ncccc23)C1 [ER-888840]', 100),
  ('CC1CC(NC(=O)C2(C)COC2)CN(c2ccc(C#N)c3ncccc23)C1 (stereo not drawn) [ER-899072]', 72),
  ('CC1CC(NC2COC2)CN(c2ccc(C#N)c3ncccc23)C1 (stereo not drawn) [ER-899541]', 92);

stdin: Entry C[C@H]1C[C@@H](NS(=O)(=O)CCCN(C)C)CN(c2ccc(C#N)c3ncccc23)C1 [ER-899672] , system mouse TLR7 (Mus musculus, UniProt P58681): what % Suppression vs. Vehicle was measured?
stdout: 83
